Tested on: Puccinia recondita
assayRemarks: In vivo preventive test on Puccinia recondita (brown rust on wheat)
conditionSummary: 100 ppm, wheat plants, preventive spray, grading 12 days after contamination
Each entry below lists one item and its recorded Eff. % value.
Reply with a number, then the unit it belongs to.

CC(C)C1OC(C)(C)c2cccc(NC(=O)c3c(C(F)F)nn(C)c3F)c21 (stereo not drawn) [Example 22] = 98%
CCC1OC(CC)(CC)c2cccc(NC(=O)c3cn(C)nc3C(F)F)c21 (stereo not drawn) [Example 23] = 98%
CCC1OC(C)(C)c2cccc(NC(=O)c3c(C(F)F)nn(C)c3Cl)c21 (stereo not drawn) [Example 15] = 100%
CC(C)C1OC(C)(C)c2cccc(NC(=O)c3cn(C)nc3C(F)F)c21 (stereo not drawn) [Example 25] = 98%
CCC1OC(CC)(CC)c2cccc(NC(=O)c3c(C(F)F)nn(C)c3Br)c21 (stereo not drawn) [Example 19] = 98%

Next molecule, Eff. % to be filled in.
Look up Eff. % for this molecule: CCC1OCc2cccc(NC(=O)c3c(C(F)F)nn(C)c3Br)c21 (stereo not drawn) [Example 20] 98%
